These measurements were taken from the supplement of paper PMC10567573.

Below, each entry is listed with its recorded protein stability index.
Assay: protein stability index of a GFP-peptide fusion (GPS, HEK-293T) (PSI 1-6); higher = more stable;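 further: 24-mer peptide tiles fused after GFP, lentivirally expressed, FACS-sorted into six equal bins by GFP/DsRed ratio, decoded by Illumina sequencing, PSI is the read-weighted mean bin number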
Conditions: treatment: MLN4924 1 uM, 8 h; c terminus: a fixed tail appended
Give the figure by itself; no unit, no explanation.

Consider the worked cases shown below.
[
  {
    "Sequence input": "TLLGNPKKRMRYFDPLRNEYFFDR [KCNA1]",
    "protein stability index": 2.3
  },
  {
    "Sequence input": "TVHEVDIFRCFCPVFLHSQMLWEL [DENND6A]",
    "protein stability index": 3.33
  },
  {
    "Sequence input": "YPASIVDEPTFKVLLKTADPRYEL [ZBED1]",
    "protein stability index": 3.27
  },
  {
    "Sequence input": "GLSGGALSPLRAASDPLLSSVSPA [TFE3]",
    "protein stability index": 3.91
  },
  {
    "Sequence input": "MRHEELLTKTFQGPAVVCGTPTSH [LYSMD4]",
    "protein stability index": 3.82
  },
  {
    "Sequence input": "RRNLEEDDYLHKDTGETSMLKRPV [STEAP1]",
    "protein stability index": 4.76
  }
]

Q: Respond only with protein stability index recorded for LEALHLEALCEEDLLLWIQKHTEV [DENND6A]
Result: 2.84

----------
Experiment: protein stability index of a GFP-peptide fusion (GPS, HEK-293T) (PSI 1-6); higher = more stable
Settings: treatment: MLN4924 1 uM, 8 h; c terminus: native
Answer -1 if protein stability index is under 3, and 1 if it is 3 or more.

Worked set:
[
  {
    "Sequence input": "RGAPRGGGRGGSRSDRGGGRSRY [RBMX]",
    "Classification": 1
  },
  {
    "Sequence input": "SWEVVTSMGTQRCDAGVCVLREK [KLHL12]",
    "Classification": 1
  },
  {
    "Sequence input": "ANFHLNDLEAPHEDDAEGEGEWD [TCF25]",
    "Classification": 1
  }
]

Q: Decide: is the reported value of protein stability index for LFEAGDATLASDLQDWASVGAFL [FOXJ1] equal to or greater than 3?
Result: 1

Q: Decide: is the reported value of protein stability index for VSSNNRLVVTGSGEHASVYQITY [TLE6] equal to or greater than 3?
Result: -1

Q: Decide: is the reported value of protein stability index for GRWLRSTRFSGSLDRLRETRVAD [PCDHGC5] equal to or greater than 3?
Result: -1

Q: Decide: is the reported value of protein stability index for AVSVMKKCRKLEDPQSSSQVTTS [SLC19A2] equal to or greater than 3?
Result: 1

Q: Decide: is the reported value of protein stability index for CPHCGDRTFYDPEPILCPCFMPN [PRAME] equal to or greater than 3?
Result: 1

Q: Decide: is the reported value of protein stability index for DEIRWKYHSDTTPKIIESQRPPH [IQUB] equal to or greater than 3?
Result: 1

----------
Test: protein stability index of a GFP-peptide fusion (GPS, HEK-293T) (PSI 1-6); higher = more stable
Conditions: treatment: MLN4924 1 uM, 8 h; c terminus: a fixed tail appended
Below, each entry is listed with its recorded protein stability index.
Give the figure by itself; no unit, no explanation.

Q: Respond only with protein stability index recorded for LLSCLSKSNNRLKSLSIQYLELDR [FBXO39]
Result: 2.01

Q: Respond only with protein stability index recorded for LPFERLAFVLSSNSLKHCTELELF [KLHL13]
Result: 2.76

Q: Respond only with protein stability index recorded for DSEEELAAFCPQLDDSTVARELAI [RETREG3]
Result: 5.24

Q: Respond only with protein stability index recorded for MKDRTQELRTAKDSDDDDDVAVTV [STX1A]
Result: 5.43

Q: Respond only with protein stability index recorded for GSRVLHVVQTLYPFSSVTEEELNF [NCK2]
Result: 2.31

----------
Experiment: protein stability index of a GFP-peptide fusion (GPS, HEK-293T) (PSI 1-6); higher = more stable
Conditions: treatment: MLN4924 1 uM, 8 h; c terminus: a fixed tail appended
Answer no (0) if protein stability index is under 3, and yes (1) if it is 3 or more.

Worked set:
[
  {
    "Sequence input": "AVEAELKSSTVGLVTLNDMKAKQE [FAM50A]",
    "Classification": "yes (1)"
  },
  {
    "Sequence input": "ICDRTATPLDAFRMTSAAHYYPKL [GFOD1]",
    "Classification": "no (0)"
  },
  {
    "Sequence input": "RSQMQGPRTRARLGANEVLLVVGG [KLHL12]",
    "Classification": "no (0)"
  }
]

Q: Decide: is the reported value of protein stability index for MALLRKINQVLLFLLIVTLCVILY [GLT8D2] equal to or greater than 3?
Result: no (0)

Q: Decide: is the reported value of protein stability index for HRKAVHLRTRGRTRGWVQTLARMS [C6orf223] equal to or greater than 3?
Result: no (0)

----------
Assay: protein stability index of a GFP-peptide fusion (GPS, HEK-293T) (PSI 1-6); higher = more stable
Conditions: treatment: MLN4924 1 uM, 8 h; c terminus: a fixed tail appended
Answer NO if protein stability index is under 4, and YES if it is 4 or more.

[
  {
    "Sequence input": "SNASEDTRRLRLAHVGMELQLKQE [SCARA5]",
    "Classification": "YES"
  }
]

Q: Decide: is the reported value of protein stability index for GSMEQVSSHFLEQTLDKKLMSDLR [INTS4] equal to or greater than 4?
Result: NO

Q: Decide: is the reported value of protein stability index for VVLLFETALLSSGFSLEDPQTHSN [HSP90AB1] equal to or greater than 4?
Result: NO

Q: Decide: is the reported value of protein stability index for KQRPTKLKSLIRLVKHWYQNCKKK [OAS1] equal to or greater than 4?
Result: NO

Q: Decide: is the reported value of protein stability index for LIVHIALPSWADICTNLCEALQNF [M1AP] equal to or greater than 4?
Result: NO

Q: Decide: is the reported value of protein stability index for CSQGQQLATFSSDWEIQEDSRLMC [CCDC3] equal to or greater than 4?
Result: NO

Q: Decide: is the reported value of protein stability index for MCPLYDPNRQLWIELAPLSMPRIN [GAN] equal to or greater than 4?
Result: NO

Q: Decide: is the reported value of protein stability index for STGEAGTDGDHNVYPRPPEPREFS [ZC2HC1C] equal to or greater than 4?
Result: YES

----------
Assay: protein stability index of a GFP-peptide fusion (GPS, HEK-293T) (PSI 1-6); higher = more stable
Settings: treatment: DMSO; c terminus: a fixed tail appended
Answer false if protein stability index is under 3, and true if it is 3 or more.

[
  {
    "Sequence input": "AVQDHGQPPLSATVTLTVAVADSI [PCDHGA10]",
    "Classification": "false"
  },
  {
    "Sequence input": "MKDRTQELRTAKDSDDDDDVAVTV [STX1A]",
    "Classification": "true"
  },
  {
    "Sequence input": "AVEAELKSSTVGLVTLNDMKAKQE [FAM50A]",
    "Classification": "true"
  }
]

Q: Decide: is the reported value of protein stability index for KVEEVSLPEQVDIIISEPMGYMLF [CARM1] equal to or greater than 3?
Result: false

Q: Decide: is the reported value of protein stability index for SRLLGSASPSSSVRLGSFRSPRAG [PRPH] equal to or greater than 3?
Result: true

Q: Decide: is the reported value of protein stability index for VLSHIMFDGPEAWGVCEPQREEVE [ZER1] equal to or greater than 3?
Result: true

Q: Decide: is the reported value of protein stability index for PKFKKWCDDYFFIAHRGERRGIGG [CPOX] equal to or greater than 3?
Result: false

----------
Assay: protein stability index of a GFP-peptide fusion (GPS, HEK-293T) (PSI 1-6); higher = more stable
Conditions: treatment: MLN4924 1 uM, 8 h; c terminus: a fixed tail appended
Answer 0 (no) if protein stability index is under 4, and 1 (yes) if it is 4 or more.

[
  {
    "Sequence input": "WAEAECQRQQLPVTFGNKQKVLGK [BTBD1]",
    "Classification": "1 (yes)"
  },
  {
    "Sequence input": "MGIYQMYLCFLLAVLLQLYVATEA [SLC22A15]",
    "Classification": "0 (no)"
  },
  {
    "Sequence input": "KDLSNTFAKLEKLTILAKRKSLFD [STX5]",
    "Classification": "0 (no)"
  },
  {
    "Sequence input": "LGRPDSLELQRQREARKRALARKQ [RSPH3]",
    "Classification": "1 (yes)"
  },
  {
    "Sequence input": "PVALLLAQHKDRSTQLEMQLEKPK [MNAT1]",
    "Classification": "0 (no)"
  }
]

Q: Decide: is the reported value of protein stability index for KAVVFFVFYLWSAIEIFRYSFYML [HACD3] equal to or greater than 4?
Result: 0 (no)

Q: Decide: is the reported value of protein stability index for LEVADFLIKAGADIELGCSTPLME [ANKRD17] equal to or greater than 4?
Result: 0 (no)
